assay system: P2X7 (Homo sapiens (Human))
Sequence (Q99572 whole entry): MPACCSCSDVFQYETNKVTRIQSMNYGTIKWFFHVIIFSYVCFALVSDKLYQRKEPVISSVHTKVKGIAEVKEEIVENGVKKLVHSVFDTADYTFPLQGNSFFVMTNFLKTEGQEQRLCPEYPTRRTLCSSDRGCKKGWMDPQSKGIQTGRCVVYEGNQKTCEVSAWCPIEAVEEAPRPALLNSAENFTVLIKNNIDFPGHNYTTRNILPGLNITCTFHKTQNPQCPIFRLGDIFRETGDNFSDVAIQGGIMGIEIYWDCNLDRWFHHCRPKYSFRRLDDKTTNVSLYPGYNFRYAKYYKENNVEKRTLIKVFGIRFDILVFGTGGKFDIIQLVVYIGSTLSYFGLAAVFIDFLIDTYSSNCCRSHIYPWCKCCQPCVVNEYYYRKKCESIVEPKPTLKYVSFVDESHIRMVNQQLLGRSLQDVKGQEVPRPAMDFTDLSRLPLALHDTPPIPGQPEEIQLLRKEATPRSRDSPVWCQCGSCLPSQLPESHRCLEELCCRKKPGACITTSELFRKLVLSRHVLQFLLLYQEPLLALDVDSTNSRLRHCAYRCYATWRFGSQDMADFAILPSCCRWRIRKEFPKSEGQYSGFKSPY
assay details: P2X7 antagonism in human PBMCs (IL-1β release, ELISA)
Format: cell-based
run parameters: test compound 10 μM, IL-1β release in human PBMCs, LPS 30 ng/ml + Bz-ATP 0.5 mM, read-out: PBMC 10 μM (% control)
Procedure: Human blood was collected using a blood donor program. […] Cells were incubated for an additional 1.5 hours. […] In Table 2, when the data cell has been left blank, it is intended to mean that the compound was not tested in that assay.
Below is a list of entries, each paired with its recorded remaining activity at 10 µM value.

{"columns": ["molecule", "remaining activity at 10 µM / %"],
 "data": [
  ["CCc1nc2c(c(-c3ccn[nH]3)n1)CC(C)N(C(=O)c1cccc(C(F)(F)F)c1Cl)C2 (centres unmarked)", 13.2],
  ["CC1c2ncnc(-c3ccn[nH]3)c2CCN1C(=O)c1cccc(C(F)(F)F)c1Cl (centres unmarked)", -1.8],
  ["CC(C)c1nc2c(c(-c3ccn[nH]3)n1)CC(C)N(C(=O)c1cccc(C(F)(F)F)c1Cl)C2 (centres unmarked)", 13.6],
  ["O=C(c1cccc(C(F)(F)F)c1Cl)N1CCc2c(ncnc2-n2cncn2)C1", 20.1],
  ["O=C(c1cccc(C(F)(F)F)c1Cl)N1CCc2c(nc(C(F)(F)F)nc2-c2ccn[nH]2)C1", 10.8]
]}
